Data origin, for the record: ChEMBL document CHEMBL5291721

- TEST_TARGET: Histamine H2 receptor (Homo sapiens, UniProt P25021); note: assay procedure not described here
- Sequence (P25021 whole entry): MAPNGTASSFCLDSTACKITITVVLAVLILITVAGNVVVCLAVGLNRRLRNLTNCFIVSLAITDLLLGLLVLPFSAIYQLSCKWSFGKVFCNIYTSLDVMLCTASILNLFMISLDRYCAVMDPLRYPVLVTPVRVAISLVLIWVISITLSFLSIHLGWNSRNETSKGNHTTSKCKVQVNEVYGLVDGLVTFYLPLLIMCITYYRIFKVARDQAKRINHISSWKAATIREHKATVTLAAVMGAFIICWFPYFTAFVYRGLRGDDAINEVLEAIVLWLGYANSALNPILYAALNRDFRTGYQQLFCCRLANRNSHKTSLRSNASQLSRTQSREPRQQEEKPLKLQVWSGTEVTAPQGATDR
- Type: functional, cell-based
QUANTITY_KIND: AC50

Hi! Can you tell me AC50 for each of these molecules?
1. C#C[C@]1(O)CC[C@H]2[C@@H]3CCc4cc(O)ccc4[C@H]3CC[C@@]21C [ETHINYL ESTRADIOL]
2. CC(C)C(=O)OCC(=O)[C@@]12O[C@H](C3CCCCC3)O[C@@H]1C[C@H]1[C@@H]3CCC4=CC(=O)C=C[C@]4(C)[C@H]3[C@@H](O)C[C@@]12C [CICLESONIDE]
3. CC(N)Cc1ccccc1 (stereo not drawn) [AMPHETAMINE]
4. NS(=O)(=O)c1cc(Cl)c(Cl)c(S(N)(=O)=O)c1 [DICHLORPHENAMIDE]
5. C#CCN(C)[C@H](C)Cc1ccccc1 [SELEGILINE]
6. CN1CCCN=C1COC(=O)C(O)(c1ccccc1)C1CCCCC1 (stereo not drawn) [OXYPHENCYCLIMINE]

Found:
1. > 10 µM
2. > 10 µM
3. > 10 µM
4. > 10 µM
5. > 10 µM
6. > 10 µM

Hi! Can you tell me AC50 for each of these molecules?
1. COc1ccc(C(=O)NCc2ccc(OCCN(C)C)cc2)cc1OC [ITOPRIDE]
2. C[C@H]1C[C@@H]2[C@H]([C@@H](O)C[C@@]3(C)[C@H]2CC[C@]3(O)C(=O)CO)[C@@]2(C)C=CC(=O)C=C12 [METHYLPREDNISOLONE]

Found:
1: > 30 µM; 2: > 30 µM
